- study_system: T1, Fc-E-cadherin chimeric protein
- T1 construct: It was captured on immobilised protein A on a CM5 chip (about 3500 RU)
- T1 sequence (P12830 155-709, change not shown): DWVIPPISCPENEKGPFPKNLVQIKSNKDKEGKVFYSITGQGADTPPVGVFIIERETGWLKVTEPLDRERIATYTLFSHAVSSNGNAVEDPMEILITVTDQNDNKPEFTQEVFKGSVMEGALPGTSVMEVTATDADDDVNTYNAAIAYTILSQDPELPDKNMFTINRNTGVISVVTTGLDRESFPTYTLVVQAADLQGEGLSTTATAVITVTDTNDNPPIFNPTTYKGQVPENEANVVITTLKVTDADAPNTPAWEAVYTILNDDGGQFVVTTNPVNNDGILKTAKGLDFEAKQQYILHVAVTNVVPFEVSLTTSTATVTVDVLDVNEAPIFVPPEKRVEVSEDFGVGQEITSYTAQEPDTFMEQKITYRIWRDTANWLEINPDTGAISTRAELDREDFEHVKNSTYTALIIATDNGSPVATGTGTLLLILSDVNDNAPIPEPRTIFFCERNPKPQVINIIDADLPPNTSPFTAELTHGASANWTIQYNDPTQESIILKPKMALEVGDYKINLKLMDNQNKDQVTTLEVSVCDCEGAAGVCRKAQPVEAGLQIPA
- test_details: SPR (BIAcore X), Fc-E-cadherin captured on protein A, peptide as analyte, no calcium, fit to binding isotherm
value_kind: pKd
# pKd is unitless: minus log10 of the molar concentration; print number only

INPUT: If you can, please state the reported pKd value of H-DWVIP-NH2 (Linear synthetic peptide) [H-DWVIP-NH2] .
OUTPUT: 4.18
